system: OVCAR-8; assay: NCI tumour cell line growth inhibition, 48 h
Active and inactive are the calls of the source. Cut-off read from the data, not from the text of the source: active = GI50 up to about 1.1 µM and inactive = higher.
endpoint: GI50

- molecule: "[O-]c1on[n+]2c1c(Nc1ccc(Cl)cc1)nc1ccccc12"
  studyTarget: "OVCAR-8"
  dataValue: "> 100 µM (inactive)"
- molecule: "CN(C)CC1(Cc2ccccc2)CCC(Cc2ccccc2)C1=O (stereo unspecified)"
  studyTarget: "OVCAR-8"
  dataValue: "5.73 µM (inactive)"
- molecule: "Nn1c(Cc2ccc(Cl)cc2)n[nH]c1=O"
  studyTarget: "OVCAR-8"
  dataValue: "> 100 µM (inactive)"
- molecule: "CO[C@H]1O[C@@H]2CO[C@@H](c3ccccc3)O[C@H]2[C@@H]2C/C=C\\CCC[C@@]12O"
  studyTarget: "OVCAR-8"
  dataValue: "34.1 µM (inactive)"
- molecule: "C=CCOc1ccc(C2c3c(n[nH]c3O)CC(O)(OCC)C2C(=O)OCC)cc1OC (stereo unspecified)"
  studyTarget: "OVCAR-8"
  dataValue: "> 100 µM (inactive)"
- molecule: "CCOC1Oc2ccccc2-c2nc(N)ncc21 (stereo unspecified)"
  studyTarget: "OVCAR-8"
  dataValue: "61.9 µM (inactive)"
